Reference source: PubChem BioAssay

test: binders of probe aFGF10 on microarray, primary screen, stem cell growth factor project, biochemical, small-molecule microarray, fluorescence 635/667 (AID 1071); settings: higher = more signal;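 also: score merges 667 nm spot intensity and signal to noise from triplicate slides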
Lab note: compare composite z-score against 0.6. Equal or greater, write 1. Smaller, write 0.

compound: COC(=O)[C@@]1(Cc2ccc(F)cc2)[C@H]2c3cc(C(=O)N4CCCC4)n(C)c3C[C@H]2CN1C(=O)c1ccccc1
group: 1

Does the compound COCC(=C=CC[C@@H](O)c1cccc(OCCO)c1)CCO have recorded composite z-score that is 0.6 or more?
1

Does the compound COc1cc(NN2C(C(O)C3CCCCC3)C=CC3C(=O)N(c4ccccc4)C(=O)C32)cc(OC)c1OC (stereo unspecified) have recorded composite z-score that is 0.6 or more?
0

Does the compound O=C1O[C@H](c2ccccc2)[C@H](c2ccccc2)N2[C@H]1[C@@H](C(=O)Nc1nc3ccccc3s1)[C@]1(C(=O)Nc3ccc(C#CC4=CCCCC4)cc31)[C@H]2c1ccc(O)cc1 have recorded composite z-score that is 0.6 or more?
0

Does the compound COc1cccc(/C=C(\C#N)C(=O)Nc2c(C)n(C)n(-c3ccccc3)c2=O)c1 have recorded composite z-score that is 0.6 or more?
0

Does the compound O=C1C2C=CC(C(O)c3cccc(O)c3)N(Nc3ccccc3)C2C(=O)N1c1ccccc1 (stereo unspecified) have recorded composite z-score that is 0.6 or more?
0

Does the compound CCCC=C(CCC)[C@@H](NS(=O)(=O)c1cccc2cccnc12)c1ccc(-c2ccccc2)cc1 have recorded composite z-score that is 0.6 or more?
1

Does the compound CCOC(=O)C1=C[C@@H](C(C)(C)C)N(S(=O)(=O)c2ccc(C)cc2)[C@H]1c1cccc(Cl)c1 have recorded composite z-score that is 0.6 or more?
1

Does the compound CCCC=C(CCC)[C@@H](NC(=O)CCc1ccccc1)c1ccc(C(F)(F)F)cc1 have recorded composite z-score that is 0.6 or more?
0

Does the compound C=CCNC(=O)[C@@H]1[C@H]2C(=O)O[C@H](c3ccccc3)[C@H](c3ccccc3)N2[C@H](c2ccc(O)cc2)[C@@]12C(=O)N(C(=O)OCCOC)c1ccc(C#CCCO)cc12 have recorded composite z-score that is 0.6 or more?
1

Does the compound C=CCC(OC(C)=O)[C@@H]1[C@@H](N(Cc2ccc(-c3ccccc3)cc2)C(=O)c2ccc(C)cc2)c2cc(OCCCO)ccc2N1C(=O)Cc1ccc2ccccc2c1 (stereo partly specified) have recorded composite z-score that is 0.6 or more?
0

###

tested on: Inhibin beta A chain (activin A); test: INHBA (activin A) binders on microarrays, primary screen, biochemical, small-molecule microarray, 635 nm fluorescence scan (AID 1107); details: small-molecule microarray binding, higher = more signal;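 also: mouse activin A protein probed at 4.33 µg/mL on printed slides; score merges bound-protein fluorescence near 667 nm with spot signal-to-noise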
Overview of reported composite z-score across a group of compounds:
Output spec: single numeric token, no unit.

smiles-entry: COC(=O)c1c2oc(c1C(=O)OC)C(=O)N1CCC[C@H]1Cn1nncc1CN(Cc1ccccc1)C(=O)N[C@H](CO)CC2
experimental-target: Inhibin beta A chain (activin A)
composite z-score: 0.309

composite z-score for CCOC(=O)C1=C[C@@H](c2ccccc2)N(S(=O)(=O)c2ccc(C)cc2)[C@H]1c1ccccc1 ?
1.46

###

assay: osmotic lysis modulators in infected erythrocytes, primary screen, PSAC antagonist project, cell-based, P. falciparum Indochina, OD700, 3 h (AID 1156); settings: higher = more signal, called active from +8 up or from −8 down
recorded-metric: z-score
Output spec: single numeric token, no unit.

Study these solved cases before continuing.
compound: CC(=O)NCCCC[C@@H]1NC(=O)[C@@H]2C[C@H](C(=O)NCCCCCCN)[C@H](c3cccc(OCCO)c3)N2C1=O
result-value: 0.819

compound: COC(=O)[C@@]1(Cc2ccc(OC)cc2)[C@H]2c3cc(C(=O)N4CCCC4)n(Cc4ccc(OC(F)(F)F)cc4)c3C[C@H]2CN1C(=O)c1ccccc1
result-value: -0.0152

z-score for Cc1ccccc1C(O)C1C=CC2C(=O)NC(=O)C2N1Nc1ccc(Cl)cc1Cl (stereo not drawn) ?
-1.11

z-score for CC(=O)n1cc(C(O)C2C=CC3C(=O)N(c4ccccc4)C(=O)C3N2Nc2ccc(C(C)C)cc2)c2ccccc21 (stereo not drawn) ?
-0.43

z-score for CCOC(=O)C=Cc1ccccc1O ?
0.784

z-score for CN1C(=O)C2C=CC(C(O)c3ccc(I)cc3)N(Nc3ccccc3)C2C1=O (stereo not drawn) ?
1.04

z-score for COCCOC(=O)N1C(=O)[C@@]2(c3cc(C#CCCO)ccc31)[C@H](C(N)=O)[C@H]1C(=O)O[C@H](c3ccccc3)[C@H](c3ccccc3)N1[C@@H]2c1ccc(OCCO)cc1 ?
1.88

z-score for CN1C(=O)[C@@H]2[C@@H](CC(COc3ccccc3)=C([C@H](O)CCc3ccccc3)[C@@H]2CO)C1=O ?
-0.0433
